# procedure-summary: amyloid nucleation score (Sup35N fusion, yeast selection) (log enrichment); library NNK2; higher = more nucleation; inactive = no reads after selection;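 also: zero at mode of non-aggregating sequences after 7 days selection at 30°C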
measured-attribute: amyloid nucleation score
Please give only the number in your answer, with no unit.

Recorded results for 6 substances are shown here.
| substance | amyloid nucleation score |
| --- | --- |
| NDHSVHINYLIIGAIHNTVN | 8.4 |
| LIVSAALRYNKDLLWIS | -0.004 |
| QIASYDFCHRVGRMGPTVCV | -0.165 |
| YVCRSGWDLVAKFGILRREE | 2.17 |
| EMSVRPGVSRKIWS | 0.43 |
| CNVSSELCYYGMSTYIKNPM | -0.947 |

In: Endpoint output: amyloid nucleation score of "CWFMYPSMIDWWSMTSRECF" . Value?
Out: -0.129

In: Endpoint output: amyloid nucleation score of "GQYLVSKFGIEHTA" . Value?
Out: 0.307

In: Endpoint output: amyloid nucleation score of "YRDRDLC" . Value?
Out: -0.339
